Listing of entries alongside the reported pEC50.
target-or-system: Apelin receptor (Homo sapiens)
Sequence (P35414 whole entry): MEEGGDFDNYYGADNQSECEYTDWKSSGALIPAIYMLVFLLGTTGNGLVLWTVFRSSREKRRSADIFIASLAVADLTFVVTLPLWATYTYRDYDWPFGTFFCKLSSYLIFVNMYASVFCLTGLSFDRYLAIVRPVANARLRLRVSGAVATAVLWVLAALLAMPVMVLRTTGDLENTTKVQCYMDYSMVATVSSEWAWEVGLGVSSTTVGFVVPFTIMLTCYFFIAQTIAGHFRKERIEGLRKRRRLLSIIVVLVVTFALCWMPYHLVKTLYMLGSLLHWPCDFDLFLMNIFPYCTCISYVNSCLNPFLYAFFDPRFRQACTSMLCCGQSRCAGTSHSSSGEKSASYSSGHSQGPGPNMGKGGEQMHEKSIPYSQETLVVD
method-notes: Agonist activity at human AGTRL1 expressed in CHO-K1 cells assessed as induction of beta-arrestin 2 recruitment incubated for 90 mins by PathHunter assay
Format: functional, cell-based
pEC50: −log10 of the molar value.

| compound | limit-qualifier | pEC50 |
| --- | --- | --- |
| COc1cccc(OC)c1-c1cc(C(=O)N[C@@H](CCN2CCCCC2)Cc2nnc[nH]2)nn1C1CCCC1 | = | 6.28 |
| COc1cccc(OC)c1-c1cc(C(=O)N[C@@H](CCN2CCCCCC2)CC(=O)NC2CCC2)nn1C1CCCC1.Cl | = | 6.80 |
| COc1cccc(OC)c1-c1cc(C(=O)N[C@@H](CCN2CCOCC2)CC(=O)NC2CCC2)nn1C1CCCC1.Cl | = | 5.87 |
| COc1cccc(OC)c1-c1cc(C(=O)N[C@@H](CCN2CCCCC2)CC(=O)N(C)c2nccs2)nn1C1CCCC1 | = | 7.85 |
| COc1cccc(OC)c1-c1cc(C(=O)N[C@@H](CCN2CCCCC2)CC(=O)N(C)C2CCC2)nn1C1CCCC1 | = | 6.49 |
| COc1cccc(OC)c1-c1cc(C(=O)N[C@@H](CCN2C(C)CCCC2C)CC(=O)NC2CCC2)nn1C1CCCC1.Cl (some centres not stated) | = | 6.34 |
| COCCN(C)C(=O)C[C@H](CCN1CCCCC1)NC(=O)c1cc(-c2c(OC)cccc2OC)n(C2CCCC2)n1 | < | 5.00 |

----------
method-notes: Half life in human pooled liver microsomes at 1 uM incubated up to 120 mins in presence of NADPH by LC-MS analysis
Format: ADME, Microsome
Each record is given yes (1) if its reported half-life at 1 µM is strictly below 20 min. Records at or above 20 min are given no (0).

| mol | category |
| --- | --- |
| COc1cccc(OC)c1-c1cc(C(=O)N[C@@H](CCN2CCCCCC2)CC(=O)NC2CCC2)nn1C1CCCC1.Cl | no (0) |
| COc1cccc(OC)c1-c1cc(C(=O)N[C@@H](CCN2CCCCC2)CC(=O)NC2CCC2)nn1C1CCCC1.Cl | no (0) |
| COc1cccc(OC)c1-c1cc(C(=O)N[C@@H](CCN2CCCCC2)CC(=O)NC2CC(F)(F)C2)nn1C1CCCC1 | no (0) |
| COc1cccc(OC)c1-c1cc(C(=O)N[C@@H](CCN2CCOCC2)CC(=O)NC2CCC2)nn1C1CCCC1.Cl | yes (1) |
| COc1cccc(OC)c1-c1cc(C(=O)N[C@@H](CCN2CCCCC2)CC(=O)Nc2nnn[nH]2)nn1C1CCCC1 | no (0) |
| COc1cccc(OC)c1-c1cc(C(=O)N[C@@H](CCN2CCCCC2)CC(=O)N(C)c2nccs2)nn1C1CCCC1 | no (0) |

----------
Listing of entries alongside the reported EC50.
target-or-system: Apelin receptor (Homo sapiens)
method-notes: Agonist activity at human APJ receptor expressed in CHO cells assessed as inhibition of forskolin-induced cAMP accumulation measured after 30 mins by TR-FRET assay

| molecule | target-or-system | EC50, nM |
| --- | --- | --- |
| COc1cccc(OC)c1-c1cc(C(=O)N[C@@H](CCN2CCOCC2)CC(=O)NC2CCC2)nn1C1CCCC1.Cl | Apelin receptor (Homo sapiens) | 237 |
| COc1cccc(OC)c1-c1cc(C(=O)N[C@@H](CCN2C(C)CCCC2C)CC(=O)NC2CCC2)nn1C1CCCC1.Cl (stereo partly drawn) | Apelin receptor (Homo sapiens) | 33 |
| COc1cccc(OC)c1-c1cc(C(=O)N[C@@H](CCN2CCCCC2)CC(=O)N(C)c2nccs2)nn1C1CCCC1 | Apelin receptor (Homo sapiens) | 5 |
| COc1cccc(OC)c1-c1cc(C(=O)N[C@@H](CCN2CCCCC2)CC(=O)N(C)C2CCC2)nn1C1CCCC1 | Apelin receptor (Homo sapiens) | 105 |
| COc1cccc(OC)c1-c1cc(C(=O)N[C@@H](CCN2CCCCCC2)CC(=O)NC2CCC2)nn1C1CCCC1.Cl | Apelin receptor (Homo sapiens) | 8 |
| COCCN(C)C(=O)C[C@H](CCN1CCCCC1)NC(=O)c1cc(-c2c(OC)cccc2OC)n(C2CCCC2)n1 | Apelin receptor (Homo sapiens) | 2410 |
| COc1cccc(OC)c1-c1cc(C(=O)N[C@@H](CCN2CCCCC2)CC(=O)Nc2nccs2)nn1C1CCCC1 | Apelin receptor (Homo sapiens) | 1 |
| COc1cccc(OC)c1-c1cc(C(=O)N[C@@H](CCN2CCCCC2)Cc2nnc[nH]2)nn1C1CCCC1 | Apelin receptor (Homo sapiens) | 134 |

Attribution: ChEMBL document CHEMBL4823248
